pIC50 values by entry
TARGET_SYSTEM: human P2X3 receptor (Homo sapiens (Human))
Sequence (P56373 whole entry): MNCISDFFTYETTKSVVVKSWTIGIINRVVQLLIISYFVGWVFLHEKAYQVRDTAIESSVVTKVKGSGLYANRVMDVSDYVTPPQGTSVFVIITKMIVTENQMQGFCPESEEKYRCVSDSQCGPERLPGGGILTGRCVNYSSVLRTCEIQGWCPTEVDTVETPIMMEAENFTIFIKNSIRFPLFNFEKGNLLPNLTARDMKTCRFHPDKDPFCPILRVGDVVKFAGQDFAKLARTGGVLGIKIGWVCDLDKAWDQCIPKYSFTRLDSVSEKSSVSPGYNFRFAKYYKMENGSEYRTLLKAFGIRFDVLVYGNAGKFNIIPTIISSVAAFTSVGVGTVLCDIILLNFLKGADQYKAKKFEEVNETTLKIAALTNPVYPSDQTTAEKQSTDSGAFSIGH
ASSAY_REMARKS: P2X3 receptor inhibition, ATP-evoked Fluo-3 fluorescence (FDSS 3000)
MEASUREMENT_CONDITIONS: C6BU-1 cell transfected with human P2X3 receptor gene
Value format note: pIC50 is -log10 of concentration (mol/L); just state the number.

Recorded pIC50, per entry:
CCOc1ccc(/N=c2\[nH]c(=O)n(C[C@@H](C)C(=O)O)c(=O)n2Cc2ccc(Cl)cc2)cc1 :: 6.54
CCCCc1ccc(Nc2nc(=O)n(CCO)c(=O)n2Cc2ccc(Cl)cc2)cc1 :: 6.89
CC(C)n1c(=O)nc(Nc2ccc(C(=O)NCC3CC3)cc2)n(Cc2ccc(Cl)cc2)c1=O :: 6.17
CC(C)n1c(=O)nc(Nc2ccc3[nH]c(=O)oc3c2)n(Cc2ccc(Cl)cc2)c1=O :: 6.00
CC(C)Cc1ccc(Nc2nc(=O)n(CCO)c(=O)n2Cc2ccc(Cl)cc2)cc1 :: 6.91
CC(C)n1c(=O)nc(Nc2cccc(C(F)(F)F)c2)n(Cc2ccc(F)cc2)c1=O :: 6.16

Give the reported value of pIC50 for this record: Cc1ccc(Cn2c(=O)n(CC(=O)NC3(C(=O)O)CC3)c(=O)[nH]/c2=N\c2ccc(OC(C)C)c(F)c2)cc1
7.15

Give the reported value of pIC50 for this record: CCOC(=O)CCCn1c(=O)[nH]/c(=N\c2ccc(OC(C)C)c(Cl)c2)n(Cc2ccc(Cl)cc2)c1=O
8.05

Attribution: patent US9150546B2
